Data provenance: ChEMBL document CHEMBL5036385

- Run description: Aqueous solubility of compound at pH 7.4 measured after 1460 min by HPLC analysis
- Type: physicochemical
- Measurement context: buffer
Experimental endpoint: solubility kinetic at 24.33 h (µM)
Hi! Could you send only the number? It should be in µM, unit omitted.

Below: 2 compounds and their reported solubility kinetic at 24.33 h.
Compound: COc1ccc(N2C(=O)c3cc([N+](=O)[O-])ccc3N=C3C2N(C)CCN3C)cc1 (stereo not drawn)
solubility kinetic at 24.33 h, µM: 0.7
//
Compound: COc1ccc(N2C(=O)c3cc(C#N)cc(-c4ccc(C)nc4)c3N=C3C2N(C)CCN3C)cc1F (racemic)
solubility kinetic at 24.33 h, µM: 2

### Prompt Requested read-out: solubility kinetic at 24.33 h. Entry: COc1ccc(N2C(=O)c3cc([N+](=O)[O-])ccc3N=C3C2N(C)CCN3C)cc1F (stereo not drawn)
### Response 0.5

* * *

- System: Venezuelan equine encephalitis virus
- Run description: Antiviral activity against Venezuelan equine encephalitis virus co-culture with brain Primary neuron cells HNC001 as reduction on virus titre at 5 uM in Vero 76 cells measured after 18 hrs by TCID50-MTT assay
- Type: functional, organism-based
Active and inactive are the calls of the source. No cut-off for these calls is given here.
Experimental endpoint: Activity

Compound: COc1ccc(N2C(=O)c3cc(C#N)cc(-c4ccc(C)nc4)c3N=C3[C@H]2N(C)CCN3C)cc1F
Activity: Active
--
Compound: COc1ccc(N2C(=O)c3cc([N+](=O)[O-])ccc3N=C3C2N(C)CCN3C)cc1F (stereo not given)
Activity: Active
--
Compound: COc1ccc(N2C(=O)c3cc(C#N)cc(-c4ccc(C)nc4)c3N=C3C2N(C)CCN3C)cc1F (racemic)
Activity: Active
--
Compound: COc1ccc(N2C(=O)c3cc([N+](=O)[O-])ccc3N=C3C2N(C)CCN3C)cc1 (stereo not given)
Activity: Active

### Prompt Given the compound "COc1ccc(N2C(=O)c3cc(C#N)cc(-c4ccc(C)nc4)c3N=C3[C@@H]2N(C)CCN3C)cc1F" , what is its reported Activity?
### Response Active
